# System: ADCK4
# condition_label: concentration: 1 μM, replicates: in singlicate; n = 1;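 also: KINOMEscan kinase panel screen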
Binary classification by %Inh, with 20% as an inclusive lower bound for condition met; all other cases are condition not met.

INSERT INTO measurements (molecule, group) VALUES
  ('COc1cc2ncnc(Nc3cccc(Br)c3)c2cc1OC.Cl', 'condition met'),
  ('COc1ccc(Nc2nccc(N3CCC(NC(=O)c4cc5ccccc5s4)C3)n2)cc1 (stereo not drawn)', 'condition met'),
  ('Cc1ccc(NC(=O)Nc2ccccc2)cc1-c1ccc(C(=O)Nc2ccncc2)cc1', 'condition not met'),
  ('COc1ccc(Nc2nccc(NCCNC(=O)Nc3cc(C)ccc3C)n2)cc1', 'condition not met'),
  ('COc1ccc(CSc2nnc(-c3ccc4nccn4c3)o2)cc1C(F)(F)F', 'condition not met'),
  ('COc1ccc(-c2coc3ccc(-c4nnc(C)o4)cc23)cc1', 'condition not met'),
  ('COc1ccc(CSc2nnc(-c3ccc4ncsc4c3)o2)cc1C(F)(F)F', 'condition not met'),
  ('COc1ccc(Nc2nccc(N3CCC(NC(=O)C(C)c4ccc(Cl)cc4)CC3)n2)cc1 (stereo not drawn)', 'condition not met'),
  ('Fc1ccc(-c2nc[nH]c2-c2ccncc2)cc1', 'condition not met');

---

# Test system: STK36
# condition_label: concentration: 1 μM, replicates: in singlicate; n = 1
endpoint: %Inh (%)

INSERT INTO assay_data (chemical_structure, readout_units, endpoint_value) VALUES
  ('COc1ccc2cc(-c3nc(-c4ccccc4C(C)C)[nH]c3-c3ccncc3)ccc2c1', '%', 41),
  ('O=c1cc(N2CCOCC2)nc2n(Cc3cccc(Cl)c3Cl)c3ccccc3n12', '%', 0),
  ('CC(C)c1cc(-c2ccc3c(N)n[nH]c3c2)nc(N)n1', '%', 0),
  ('Nc1cccc(-c2ccc3c(N)n[nH]c3c2)n1', '%', 0),
  ('COc1cccc(NC(=O)Nc2ccc(C)c(-c3ccc(C(=O)Nc4ccncc4)cc3)c2)c1', '%', 51),
  ('CCCCc1nn2ncccc2c1-c1ccnc(NC2CC2)n1', '%', 0),
  ('Cc1cnc(N)c(/C=C/c2cncc(C(=O)NCCc3ccc(Cl)cc3Cl)c2)c1.Cl', '%', 28),
  ('O=C1NC(=O)C(c2ccc(Cl)cc2)=C1Nc1cccc(Cl)c1', '%', 2),
  ('CCn1c(-c2ccccc2)nc2cnccc21', '%', 0);

---

Catalogue of %Inh readings, one per entry.
# Tested on: PIP5K2B
# condition_label: concentration: 1 μM, replicates: in singlicate; n = 1
endpoint: %Inh (%)

INSERT INTO results (molecule, readout_units, endpoint_value) VALUES
  ('COc1cccc(C2=C(Nc3cc(Cl)c(O)c(Cl)c3)C(=O)NC2=O)c1 [SB-390767]', '%', 15),
  ('Cc1ccccc1-c1cc(-c2c[nH]nc2-c2ccccn2)ccn1 [GW680061]', '%', 15),
  ('CCCCc1nn2ncccc2c1-c1ccnc(NC2CC2)n1 [GW684374]', '%', 0),
  ('Cc1cccc2c(-c3ccncn3)c(-c3ccc(F)cc3)nn12 [GW515532]', '%', 0),
  ('CN1c2ccc(-c3ccc(C(N)=O)cc3)cc2-c2[nH]ncc2S1(=O)=O', '%', 6),
  ('COc1ccc(-c2coc3ccc(-c4nnc(C)o4)cc23)cc1', '%', 9),
  ('CC(=O)c1cccc(NC(=O)NC2CCN(c3ccnc(Nc4ccc(F)cc4)n3)C2)c1 (stereo not shown) [GSK1379710]', '%', 8),
  ('Cc1ccc(NC(=O)Nc2ccccc2F)cc1-c1ccc(C(=O)Nc2ccncc2)cc1 [GSK1398477]', '%', 0),
  ('COC(=O)c1cccc(NC(=O)NC2CCN(c3ccnc(Nc4ccc(F)cc4)n3)C2)c1 (stereo not shown) [GSK1379725]', '%', 9),
  ('CC(=O)c1c(C)c2cnc(Nc3ccn(C)n3)nc2n(C2CCCC2)c1=O', '%', 0),
  ('O=c1cc(N2CCOCC2)nc2n(Cc3ccccc3F)ccn12 [GSK2297428]', '%', 19),
  ('Cc1ccc(NC(=O)Nc2ccccc2)cc1-c1ccc(C(=O)Nc2ccncc2)cc1 [GSK1398471]', '%', 6),
  ('CCn1c(-c2c(N)noc2C)nc2cnccc21 [SB-737856]', '%', 19),
  ('COc1ccc(CSc2nnc(-c3ccc4ncsc4c3)o2)cc1C(F)(F)F', '%', 17),
  ('Fc1ccc(-c2nc[nH]c2-c2ccncc2)cc1 [SB-217360]', '%', 0),
  ('CSc1ccc(-c2nc3n(c2-c2ccncc2)CCC3)cc1 [SKF-105561]', '%', 21),
  ('Cc1ccc(NC(=O)Nc2ccc(Cl)c(C(F)(F)F)c2)cc1-c1ccc(C(=O)Nc2ccncc2)cc1 [GSK1398470]', '%', 0),
  ('COC(=O)C(NC(=O)NC1CCN(c2ccnc(Nc3ccc(F)cc3)n2)C1)c1ccccc1 (stereo not shown) [GSK1379712]', '%', 17),
  ('FC(F)(F)c1ccccc1-c1cc(-c2c[nH]nc2-c2ccccn2)ccn1 [GW679396]', '%', 15);

---

# Tested on: STK35
# condition_label: concentration: 1 μM, replicates: in singlicate; n = 1
Catalogue of %Inh readings, one per entry.
endpoint: %Inh (%)

INSERT INTO results (compound, endpoint, endpoint_value) VALUES
  ('O=C(Nc1n[nH]c2nc(-c3ccco3)c(Br)cc12)C1CCN(Cc2ccccc2)C1.O=C(O)[C@H](O)[C@@H](O)C(=O)O (stereo not drawn)', '%Inh', 0),
  ('CNCc1ccc2nc(NC(=O)c3ccc(C(C)(C)C)cc3)cn2c1', '%Inh', 0),
  ('COc1cccc(CNC(=O)NC2CCN(c3ccnc(Nc4ccc(F)cc4)n3)C2)c1 (stereo not drawn)', '%Inh', 5),
  ('CC[C@@H]1CO[C@H](C(=O)Nc2ccccc2)CN1c1cc(-c2ccc3c(N)n[nH]c3c2)nc(NC)n1', '%Inh', 0),
  ('CC(=O)c1cccc(NC(=O)NC2CCN(c3ccnc(Nc4ccc(F)cc4)n3)C2)c1 (stereo not drawn)', '%Inh', 1),
  ('CSc1ccc(-c2nc3n(c2-c2ccncc2)CCC3)cc1', '%Inh', 3),
  ('Fc1ccc(-c2nc3n(c2-c2ccncc2)CCS3)cc1', '%Inh', 0),
  ('Cc1ccc(NC(=O)Nc2ccc(Cl)c(C(F)(F)F)c2)cc1-c1ccc(C(=O)Nc2ccncc2)cc1', '%Inh', 8),
  ('Cn1cncc1C(=O)NC1CCN(c2ccnc(Nc3ccc(F)cc3)n2)C1 (stereo not drawn)', '%Inh', 0),
  ('COc1cccc(C2=C(Nc3cc(Cl)c(O)c(Cl)c3)C(=O)NC2=O)c1', '%Inh', 0),
  ('COc1ccc(CSc2nnc(-c3ccc4ncsc4c3)o2)cc1C(F)(F)F', '%Inh', 0),
  ('COc1ccc(Nc2nccc(-c3ccc(NC(=O)c4cc5cc(F)ccc5[nH]4)cc3)n2)cc1', '%Inh', 0),
  ('O=C(Nc1n[nH]c2nc(-c3cccs3)c(Br)cc12)C1CCCC1', '%Inh', 0),
  ('CNc1cc(-c2ccc3c(N)n[nH]c3c2)nc(N)n1', '%Inh', 6),
  ('Cl.Cl.Cl.N#Cc1ccc(CCNc2nccc(-c3cccc(CN4CCNCC4)c3)n2)cc1', '%Inh', 0),
  ('COc1ccc(-c2coc3ccc(-c4nnc(C)o4)cc23)cc1', '%Inh', 0),
  ('O=C(Nc1n[nH]c2cc(-c3ccsc3)ccc12)C1CC1', '%Inh', 0),
  ('COC(=O)c1cccc(NC(=O)NC2CCN(c3ccnc(Nc4ccc(F)cc4)n3)C2)c1 (stereo not drawn)', '%Inh', 0);

---

Catalogue of %Inh readings, one per entry.
# System: p38-alpha
# Construct: gene MAPK14
# condition_label: concentration: 1 μM, replicates: in singlicate; n = 1
endpoint: %Inh (%)

INSERT INTO measurements (chemical_structure, readout_units, endpoint_value) VALUES
  ('COc1nccc(-c2c(-c3ccc(F)cc3)ncn2CCCN2CCOCC2)n1', '%', 81),
  ('CNc1cc(-c2ccc3c(N)n[nH]c3c2)nc(N)n1', '%', 23),
  ('COc1cc2ncnc(Nc3cccc(Br)c3)c2cc1OC.Cl', '%', 47),
  ('COc1ccc(Nc2nccc(-c3ccc(NC(=O)c4cc5cc(F)ccc5[nH]4)cc3)n2)cc1', '%', 4),
  ('Cc1c(Cn2c3ccccc3n3c(=O)cc(N4CCOCC4)nc23)cccc1C(F)(F)F', '%', 22);

---

# Tested on: EPHA4
# condition_label: concentration: 1 μM, replicates: in singlicate; n = 1
endpoint: %Inh (%)

INSERT INTO assay_data (compound, endpoint, endpoint_value) VALUES
  ('Cc1ccc(NC(=O)Nc2ccc(Cl)cc2)cc1-c1ccc(C(=O)Nc2ccncc2)cc1', '%Inh', 41),
  ('NS(=O)(=O)c1cccc(N/C=C2\C(=O)Nc3ccc(S(=O)(=O)Cc4c(Cl)cccc4Cl)cc32)c1', '%Inh', 12),
  ('COc1ccc(Nc2nccc(NCCNC(=O)Nc3cc(C)ccc3C)n2)cc1', '%Inh', 17),
  ('Nc1ncnc2occ(-c3ccc4c(c3)CCN4C(=O)Cc3cc(F)ccc3F)c12', '%Inh', 0),
  ('CS(=O)(=O)CCNCc1nc(-c2ccc3ncnc(Nc4ccc(OCc5ccccc5)c(Cl)c4)c3c2)cs1.Cl', '%Inh', 0),
  ('FC(F)(F)c1ccccc1-c1cc(-c2c[nH]nc2-c2ccccn2)ccn1', '%Inh', 2),
  ('Cn1cncc1C(=O)NC1CCN(c2ccnc(Nc3ccc(F)cc3)n2)C1 (centres unmarked)', '%Inh', 0),
  ('COC(=O)C(Cc1ccccc1)NC(=O)NC1CCN(c2ccnc(Nc3ccc(F)cc3)n2)C1 (centres unmarked)', '%Inh', 1);
